assay-protocol: splicing luciferase reporter signal modulators, primary screen, spliceosome inhibition project, cell-based, HEK293, splice +/- reporter (AID 1101);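 further: HEK293 cells carrying a splicing-competent luciferase reporter gene; test concentration not given here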
condition-label: luminescence, 24 h, higher = more signal, called active from +8 up or from −8 down
// label = met if z-score is not less than -0.4, otherwise not met

compound	class
CCCC#C[Si](O[C@H](CC)c1cn(Cc2cccc(Cl)c2)nn1)(C(C)C)C(C)C	not met
COc1ccc([Si](C)(C)[C@@H]2[C@@H](CCO)O[C@]3(C(=O)N(Cc4ccc(N(C=O)c5ccccc5)cc4)c4ccccc43)[C@H]2C)cc1	not met
COC(=O)[C@@]1(Cc2ccc(F)cc2)[C@H]2c3cc(C(=O)N(C)C)n(Cc4ccccc4)c3C[C@H]2CN1C(=O)c1ccccc1	met

Q: Assess whether reported z-score for `NCCCCCNC(=O)[C@@H]1C[C@@H]2C(=O)N[C@@H](Cc3ccccc3)C(=O)N2[C@@H]1c1ccc(O)cc1` sits at -0.4 or higher.
A: met

Q: For this compound, is measured z-score -0.4 or higher? `CCCC=C(CCC)[C@@H](NC(=O)c1cccs1)c1ccc(C(F)(F)F)cc1`
A: not met

Q: # bool: z-score of CC1CC/C=C\[C@H]2OC34C=CCN(C(C)(C)C)C(=O)[C@H]3N(C(C)CO)C(=O)[C@@H]4C2C(=O)O1 (stereo partly drawn) >= -0.4
A: met

Q: Please indicate if the recorded z-score for CC1CC/C=C\[C@H]2OC34C=CCN(Cc5ccccc5)C(=O)[C@H]3N(CCCO)C(=O)[C@@H]4C2C(=O)O1 (stereo partly drawn) meets or exceeds -0.4.
A: met

Q: Form field: z-score at least -0.4? Entry: `CC(C)N1C(=O)[C@@]2(Cc3ccccc31)c1ccccc1C(=O)N(Cc1ccccc1Cl)[C@H]2c1ccc(CO)cc1`
A: not met
